Exercise: for every item that follows, state its recorded MIC.
Tested on: S. aureus ATCC 13709
Assay remarks: MIC, S. aureus ATCC 13709
Assay type: cell-based
Recorded conditions: Staphylococcus aureus, ATCC13709, S. aureus; Alamar Blue read after overnight incubation at 35° C.; read-out: MIC Sa
Numbers only, in µg/mL.

The examples below pair each entry with its known result.
compound="CNc1cccc2c1[nH]c1nc(Oc3cncc(C#N)c3)cc(N3C[C@@H](NC)C4(CC4)C3)c12 [Compound 3.44]" target_desc="S. aureus ATCC 13709" observed_value=8
compound="CNc1cccc2c1[nH]c1nc(Sc3cnc4cccnc4c3)nc(N3C[C@H](N)C[C@@H]3CO)c12 [Compound 1.68]" target_desc="S. aureus ATCC 13709" observed_value=16

Okay, now this compound:
Entry CNc1cccc2c1[nH]c1nc(Oc3cncnc3)cc(Oc3cncnc3)c12 [Compound 3.37] under S. aureus ATCC 13709 had MIC of 2

* * *

Test system: E. coli ATCC 25922
Assay remarks: MIC, E. coli ATCC 25922
Format: cell-based
Recorded conditions: Escherichia coli, ATCC25922, Table 15; R2 is joined to R4; EC8 not defined; read-out: EC8 MIC
Measurement label: MIC (µg/mL)
Answers are plain numbers, in µg/mL.

The examples below pair each entry with its known result.
item_smiles=CNc1cc(F)cc2c1[nH]c1nc3nc(c12)NCCCCNC(=O)CSc1ncc(cn1)O3 unit_abbrev=µg/mL observed_value=2
item_smiles=CNc1cc(F)cc2c1[nH]c1nc3nc(c12)NCCCCCCNC(=O)c1cncc(c1)O3 unit_abbrev=µg/mL observed_value=1

Okay, now this molecule:
Entry CNc1cc(F)cc2c1[nH]c1nc3nc(c12)N[C@@H](CN)COCCCNC(=O)CSc1ncc(cn1)O3 under E. coli ATCC 25922 had MIC of 8

* * *

System: E. coli ATCC 25922
Assay remarks: MIC, E. coli ATCC 25922
Type: cell-based
Recorded conditions: Table 18, Ec
Measurement label: MIC Ec

The examples below pair each entry with its known result.
compound=CNc1cc(F)cc2c1[nH]c1nc(Nc3cccnc3)nc(N3C[C@H]4C[C@@H]3C[C@H]4N)c12 observed_value="≤ 0.5 µg/mL"
compound="CNc1cc(F)c(F)c2c1[nH]c1nc(Oc3cnc(C(C)C#N)nc3)nc(N3C[C@H]4C[C@@H]3C[C@H]4N)c12 (some centres unmarked)" observed_value="≤ 0.5 µg/mL"
compound=CNc1cc(F)cc2c1[nH]c1nc(Oc3ccc4ccnn4c3)nc(N3C[C@H]4CCN[C@H]4C3)c12 observed_value="≤ 0.5 µg/mL"
compound="CNc1cc(F)cc2c1[nH]c1nc(Oc3ccc4cncnc4c3)nc(N3C[C@H]4C[C@@H]3C[C@H]4N)c12 [Compound 10.96]" observed_value="≤ 0.5 µg/mL"
compound=CNc1cc(F)cc2c1[nH]c1nc(Oc3cnc4c(C)cnn4c3)nc(N3C[C@H](N)C4(CC4)C3)c12 observed_value="≤ 0.5 µg/mL"

Please state MIC Ec for every compound in the list that follows.
1. CNc1cc(F)cc2c1[nH]c1nc(Oc3cnc([C@@H](C)O)nc3)nc(N3CCOCC3)c12
2. CNc1cc(F)c(Cl)c2c1[nH]c1nc(Oc3cnc4ccnn4c3)nc(N3CC4(CC[C@@H]4N)C3)c12
3. CNc1cc(F)cc2c1[nH]c1nc(Oc3cnc4cc(C5CC5)nn4c3)nc(N3C[C@H]4C[C@@H]3C[C@H]4N)c12
4. CNc1cc(F)cc2c1[nH]c1nc(NCc3cnc(C)nc3)nc(N3C[C@H]4C[C@@H]3C[C@H]4N)c12
5. CNc1cc(F)cc2c1[nH]c1nc(Oc3ccc4cncnc4c3)nc(N3C[C@H]4C[C@@H]3C[C@H]4N)c12 [Compound 10.97]
6. CNc1cc(F)cc2c1[nH]c1nc(Oc3cnc(C(C)O)nc3)nc(N3C[C@H]4C[C@@H]3[C@H](C)[C@H]4N)c12 (some centres unmarked)
7. CNc1cc(F)cc2c1[nH]c1nc(Oc3cnc4c(C(C)O)cnn4c3)nc(N3C[C@H]4C[C@@H]3C[C@H]4N)c12 (some centres unmarked)

1: ≤ 0.5 µg/mL; 2: ≤ 0.5 µg/mL; 3: ≤ 0.5 µg/mL; 4: 16 µg/mL; 5: 2 µg/mL; 6: 4 µg/mL; 7: 1 µg/mL

Please state MIC Ec for every compound in the list that follows.
1. CNc1cc(F)cc2c1[nH]c1nc(Oc3cnc(C)nc3)nc(N3CCC(C(C)=O)C3)c12 (centres unmarked)
2. CNc1cc(F)c(Cl)c2c1[nH]c1nc(Oc3cnc4ccnn4c3)nc(N3C[C@H]4C[C@@H]3C[C@H]4N)c12

["≤ 0.5 µg/mL", "≤ 0.5 µg/mL"]

* * *

Exercise: for every item that follows, state its recorded MIC.
Tested on: K. pneumoniae ATCC 700603
Assay remarks: MIC, K. pneumoniae ATCC 700603
Format: cell-based
Recorded conditions: Klebsiella pneumoniae, ATCC700603; Table 10; Kpn = K. pneumoniae
Numbers only, in µg/mL.

The examples below pair each entry with its known result.
compound="CNc1cc(F)c(C)c2c1[nH]c1nc(Oc3cnc(C)nc3)nc(N3C[C@H](N)C4(CC4)C3)c12 [Compound 6.290]" unit_abbrev=µg/mL observed_value=2
compound="CNc1cc(F)cc2c1[nH]c1nc(Oc3ccc(C#N)nc3)nc(N3C[C@H]4C[C@@H]3C[C@H]4N)c12 [Compound 4.434]" unit_abbrev=µg/mL observed_value=1
compound="CNc1cc(F)cc2c1[nH]c1nc(Oc3cnc(C(C)O)nc3)nc(N3CC4C[C@@H](N)C4C3)c12 (stereo partly shown) [Compound 4.409]" unit_abbrev=µg/mL observed_value=4

Record CNc1cc(F)c(C)c2c1[nH]c1nc(Oc3cnc(C)nc3)nc(N3CC4C[C@@H]3C[C@H]4N)c12 [Compound 6.280] , field MIC: 2

* * *

Test system: P. aeruginosa ATCC 15692
Assay remarks: MIC, P. aeruginosa ATCC 15692
Format: cell-based
Recorded conditions: Table 10; Pa = P. aeruginosa
Exercise: for every item that follows, state its recorded Pa MIC.
Give bare numbers, in µg/mL.

Please state Pa MIC for every compound in the list that follows.
1. CNc1cc(F)cc2c1[nH]c1nc(Oc3cnc(C)nc3)nc(N3CC(N)C4(CC4)C3)c12 (stereo not shown)
2. CNc1cc(F)cc2c1[nH]c1nc(Oc3cnc(C(C)O)nc3)nc(N3CC4(CCC4N)C3)c12 (stereo not shown)
3. CNc1cc(F)cc2c1[nH]c1nc(Oc3cnc(C)nc3)nc(N3C[C@@H]4CCN[C@@H]4C3)c12
4. CNc1cc(F)cc2c1[nH]c1nc(Oc3cnc(C)nc3)nc(N3CC4C(N)C4C3)c12 (stereo not shown)
5. CNc1cc(F)cc2c1[nH]c1nc(Oc3cnc(C)nc3)nc(N3CCC4(CC4N)C3)c12 (stereo not shown)

1. 4
2. 1
3. 2
4. 4
5. 2

Please state Pa MIC for every compound in the list that follows.
1. CNc1cc(F)cc2c1[nH]c1nc(Oc3cnc(C)nc3)nc(N3CC4CC(N)C4C3)c12 (stereo not shown)
2. CNc1cc(F)cc2c1[nH]c1nc(Oc3cnc4cccnc4c3)nc(N3CC4(CCC4N)C3)c12 (stereo not shown)

1
4

* * *

Test system: S. aureus ATCC 13709
Assay remarks: MIC, S. aureus ATCC 13709
Type: cell-based
Recorded conditions: Staphylococcus aureus, ATCC13709, S. aureus; Alamar Blue read after overnight incubation at 35° C.; read-out: MIC Sa
Threshold 8 µg/mL. MIC below it: criterion met. MIC at it or above: criterion not met.

molecule="CNc1cc(F)cc2c1[nH]c1nc(Sc3cnc4ccc[n+]([O-])c4c3)nc(N3CC4C(N)C4C3)c12 (stereo not drawn) [Compound 1.50]" qualitative_label="criterion met"

Strictly below 8 µg/mL in MIC? CNc1cccc2c1[nH]c1nc(Sc3cncc(S(=O)(=O)N(C)C)c3)nc(N3CC4C(N)C4C3)c12 (stereo not drawn) [Compound 1.22] criterion met

Strictly below 8 µg/mL in MIC? CNc1cc(F)cc2c1[nH]c1nc(Oc3cnc(C(C)(C)N)nc3)nc(N3C[C@H]4CC3C[C@H]4N)c12 [Compound 4.442] criterion met

Strictly below 8 µg/mL in MIC? CNc1cccc2c1[nH]c1nc(Oc3cncnc3)cc(N3C[C@@H]4CNC[C@H]4C3)c12 [Compound 3.61] criterion met

* * *

Test system: S. aureus ATCC 13709
Assay remarks: MIC, S. aureus ATCC 13709
Type: cell-based
Recorded conditions: Staphylococcus aureus, ATCC13709, S. aureus; Alamar Blue read after overnight incubation at 35° C.; read-out: MIC Sa
Exercise: for every item that follows, state its recorded log10 MIC.
The base-10 logarithm of MIC, taken with MIC in µg/mL, is what appears here.

The examples below pair each entry with its known result.
molecule="COc1nccc2c1[nH]c1nc(Sc3cnc4cccnc4c3)nc(N3CC4C(N)C4C3)c12 (stereo not drawn)" measurement_label="log10 MIC" observed_value=0.30
molecule="Cc1ncc(Oc2nc(N3CC4CC3C[C@H]4N)c3c(n2)[nH]c2c(N)cc(F)cc23)cn1 (stereo partly drawn)" measurement_label="log10 MIC" observed_value=0.90
molecule=CNc1cccc2c1[nH]c1nc(Oc3cncnc3)cc(N3C[C@@H](NC)C4(CC4)C3)c12 measurement_label="log10 MIC" observed_value=0.30
molecule=CNc1cccc2c1[nH]c1nc(Sc3cnc4cccnc4c3)nc(N3C[C@@H](N)C[C@H]3C)c12 measurement_label="log10 MIC" observed_value=-0.30
molecule="CNc1cccc2c1[nH]c1nc(Oc3cncnc3)cc(N3CC4CCC(N)C4C3)c12 (stereo not drawn)" measurement_label="log10 MIC" observed_value=0.00

Please state log10 MIC for every molecule in the list that follows.
1. CNc1cccc2c1[nH]c1nc(Sc3cncc(S(=O)(=O)NCCO)c3)nc(N3CC4C(N)C4C3)c12 (stereo not drawn)
2. CNc1cccc2c1[nH]c1nc(Oc3ccc(C(=O)O)nc3)cc(N3CC4C(N)C4C3)c12 (stereo not drawn)

0.90
1.20
